Molecular target: human CXCR4 (on cells, membrane extracts or viral lipoparticles) (human, UniProt P61073 1-352)
Sequence (P61073 whole entry): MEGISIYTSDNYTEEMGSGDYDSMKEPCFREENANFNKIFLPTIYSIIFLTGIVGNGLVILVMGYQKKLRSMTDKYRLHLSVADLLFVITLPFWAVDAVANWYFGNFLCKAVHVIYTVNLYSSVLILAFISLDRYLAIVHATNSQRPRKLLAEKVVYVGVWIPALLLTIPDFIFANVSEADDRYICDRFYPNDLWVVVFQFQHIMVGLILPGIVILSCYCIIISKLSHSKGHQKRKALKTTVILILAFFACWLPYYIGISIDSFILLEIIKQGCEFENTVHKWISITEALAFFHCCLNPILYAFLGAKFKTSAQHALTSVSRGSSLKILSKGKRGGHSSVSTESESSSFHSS
Assay: cell-based or functional assay
measuredQuantity: Fold inc. vs anti-CXCR4 building block, Jurkat E6-1 (fold)
The answer is to be given in fold; state only the numeric part.

| binder | unitAbbreviation | observedValue |
| --- | --- | --- |
| 14D09-55A01 (4CXCR014D09(Q108L)-35GS-A0110055A01) (bispecific antibody, the entry carries a c-myc-His6 tag; also made as Flag3-His6-tagged protein; also called CXCR4#1-CD123#2; BI#7/19) EVQLVESGGGLVQAGGSLRLSCVASGISSSKRNMGWYRQAPGKQRESVATISSGGNKDYTDAVKDRFTISRDTTKNTVYLQMNSLKPEDTAVYYCKIEAGTGWATRRGYTYWGQGTLVTVSSGGGGSGGGGSGGGGSGGGGSGGGGSGGGGSGGGGSEVQLVESGGGSVQAGGSLRLSCTTSGRALNMYVMGWFRQAPGNEREFVAATSSSGGSTSYPDSVKGRFTISRDNAKNTVYLQMNSLKPEDTAAYRCAASPYVSTPTMNILEEYRYWGQGTLVTVSSAAAEQKLISEEDLNGAAHHHHHH | fold | 0.87 |

Attention now shifts to the item below.
IN: Form field: reported Fold inc. vs anti-CXCR4 building block, Jurkat E6-1 of 281F12-55A01 (4CXCR281F12(Q108L)-35GS-A0110055A01) (bispecific antibody, the entry carries a c-myc-His6 tag; also made as Flag3-His6-tagged protein; also called CXCR4#2-CD123#2; BI#3/17) EVQLVESGGGLVQAGDSLRLSCAASGRAFSRYAMGWFRQAPGKEREFVAAIGWGPSKTNYADSVKGRFTISRDNAKNTVYLQMNTLKPEDTAVYSCAAKFVNTDSTWSRSEMYTYWGQGTLVTVSSGGGGSGGGGSGGGGSGGGGSGGGGSGGGGSGGGGSEVQLVESGGGSVQAGGSLRLSCTTSGRALNMYVMGWFRQAPGNEREFVAATSSSGGSTSYPDSVKGRFTISRDNAKNTVYLQMNSLKPEDTAAYRCAASPYVSTPTMNILEEYRYWGQGTLVTVSSAAAEQKLISEEDLNGAAHHHHHH
OUT: 1.13
